Cited source for all entries: PubChem BioAssay (EPA / NIEHS)

# studyTarget: Retinoic acid receptor RXR-alpha (Homo sapiens) (UniProt P19793)
# Sequence (P19793 whole entry, looked up): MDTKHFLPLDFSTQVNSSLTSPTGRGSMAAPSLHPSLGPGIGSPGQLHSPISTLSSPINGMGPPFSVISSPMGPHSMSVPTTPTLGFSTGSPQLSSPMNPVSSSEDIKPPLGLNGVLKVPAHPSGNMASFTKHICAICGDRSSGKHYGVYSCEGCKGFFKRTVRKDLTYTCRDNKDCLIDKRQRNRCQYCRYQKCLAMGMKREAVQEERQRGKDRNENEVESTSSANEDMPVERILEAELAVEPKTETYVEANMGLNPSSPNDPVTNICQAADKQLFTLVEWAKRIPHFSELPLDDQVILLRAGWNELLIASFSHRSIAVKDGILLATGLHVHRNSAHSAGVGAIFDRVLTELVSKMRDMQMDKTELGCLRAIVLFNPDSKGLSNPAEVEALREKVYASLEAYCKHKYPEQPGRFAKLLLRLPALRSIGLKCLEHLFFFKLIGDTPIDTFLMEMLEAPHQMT
# testDetails: OT_NURR1_NURR1RXRa_1440: Odyssey Thera (OT) 24-hour HEK293T Protein Complementation Assay for Nurr1/retinoid X receptor (RXR) (AID 2283386)
Inconclusive results are not listed. Calls of active or inactive are those of the source. Rule for the calls: active = hit-call score of the fitted dose curve at least 0.9, where 1 is the maximum; inconclusive = response in the unintended direction; inactive = score below 0.9.
Outcomes: class 1 = active, class 0 = inactive

cpdSmiles	labelClass
CC(C)(C)c1cc(/C=C2\SC(N)=NC2=O)cc(C(C)(C)C)c1O	class 0
CC[C@@H]1C[C@H](N(Cc2cc(C(F)(F)F)cc(C(F)(F)F)c2)C(C)=O)c2cc(C(F)(F)F)ccc2N1C(=O)OC(C)C	class 0
O=C1CCC(C2CCCCC2)CC1	class 0
Cc1cccc2ccccc12	class 0
CCN(CC)C(=O)c1cc(S(=O)(=O)Cc2ccccc2)c(N2CCC(c3ccccc3)CC2)cc1N(CC)CCN(C)C	class 1

----------
# testDetails: BSK_BE3C_SRB: Viability Assessment in the BioMAP Diversity Plus: BE3C Assay (AID 2283028)
# conditionParameters: primary human bronchial epithelial cells
Activity calls are given as the source filed them. The calls were made as follows: active = hit-call score of the fitted dose curve at least 0.9, where 1 is the maximum; inactive = score below 0.9.
Outcomes: TRUE (active), FALSE (inactive)

compound	labelClass
NCc1cccc(C2CCN(C(=O)c3ccc(C#Cc4ccccc4F)o3)CC2)c1	TRUE
CCN(Cc1cccc(S(=O)(=O)O)c1)c1ccc(C(=C2C=CC(=[N+](CC)Cc3cccc(S(=O)(=O)O)c3)C=C2)c2ccccc2S(=O)(=O)[O-])cc1	FALSE
O=C=NCCCCCCN=C=O	FALSE
CC(O)CC(C)(C)O (centres undefined)	FALSE

----------
# Read-out: Caspase-3 (Homo sapiens) (UniProt P42574)
# Sequence (P42574 whole entry, looked up): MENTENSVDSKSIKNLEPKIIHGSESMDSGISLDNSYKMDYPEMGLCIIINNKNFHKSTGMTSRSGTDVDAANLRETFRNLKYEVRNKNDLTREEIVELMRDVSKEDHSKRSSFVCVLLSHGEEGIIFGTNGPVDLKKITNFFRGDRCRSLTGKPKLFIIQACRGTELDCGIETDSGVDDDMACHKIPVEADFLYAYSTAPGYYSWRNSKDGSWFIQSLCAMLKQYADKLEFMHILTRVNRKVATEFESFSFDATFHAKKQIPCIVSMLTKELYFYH
# testDetails: LTEA_HepaRG_CASP3: Life Technologies and Expression Analysis (LTEA) Assay for cysteine-aspartic acid protease (CASP3) using HepaRG (AID 2283477)
# conditionParameters: mRNA level, 48 h; actives raise or lower the signal
# Method: LTEA_HepaRG is a cell based, multiplexed-readout assay that uses HepaRG, a human liver cell line, with measurements taken at 48 hours after chemical dosing on a 96-well plate.LTEA_HepaRG_CASP3 is one of 102 assay component(s) measured in the LTEA HepaRG cell culture assay. It is a marker of Cell proliferation, survival, death.Data from the assay component LTEA_HepaRG_CASP3 was analyzed into 1 endpoint. […]
Active and inactive are the calls of the source. Rule for the calls: active = hit-call score of the fitted dose curve at least 0.9, where 1 is the maximum; inactive = score below 0.9.
Outcomes: active, inactive

compound	labelClass
CC(=O)N1CCN(c2ccc(OC[C@H]3CO[C@](Cn4ccnc4)(c4ccc(Cl)cc4Cl)O3)cc2)CC1	inactive
CCCC(=O)OCCC(C)C	inactive
Cc1occc1C(=O)Nc1ccc(C(=O)N2CCC(F)(F)/C(=C\C(=O)N3CCC(N4CCCCC4)CC3)c3ccccc32)cc1	inactive
CCCCCCCCOc1ccc(C(=O)c2ccccc2)c(O)c1	inactive
Cc1cc2c(cc1C(F)(F)F)N(C(=O)Nc1ccc(Oc3cccnc3C)nc1)CC2	inactive
O=C(O)c1ccccc1-n1cc(C(=O)O)c(=O)c2cc(Nc3c(F)cc(F)cc3Cl)c(Cl)cc21	inactive
CN(C)C(=O)C1(N2CCCCC2)CCN(CC[C@@]2(c3ccc(Cl)c(Cl)c3)CN(C(=O)c3ccccc3)CCO2)CC1	inactive
CCO[Si](CCCNC(N)=O)(OCC)OCC	inactive
Clc1ccccc1C(c1ccccc1)(c1ccccc1)n1ccnc1	inactive
Cc1cccc2ccccc12	inactive
Cc1ncc(CO)c(CO)c1O	inactive
CC[C@@H]1C[C@H](N(Cc2cc(C(F)(F)F)cc(C(F)(F)F)c2)C(C)=O)c2cc(C(F)(F)F)ccc2N1C(=O)OC(C)C	inactive
CC/C(=C(/CC)c1ccc(O)cc1)c1ccc(O)cc1	active
O=C=NCCCCCCN=C=O	inactive
O=C(O)c1ccccc1C(=O)OCc1ccccc1	inactive
Clc1cc(Cl)c2c(c1)N=C1CCCCCN1C2	inactive
Cc1ccc(C(C)C)cc1	inactive
OC12N=C(c3ccccc3)SC1Cc1cc(Cl)ccc12 (stereo not drawn)	inactive
CC(C)(C)c1cc(/C=C2\SC(N)=NC2=O)cc(C(C)(C)C)c1O	active
C[C@]12CC[C@@H]3c4ccc(O)cc4CC[C@H]3[C@@H]1CC[C@H]2O	inactive
CC[C@H](NC(=O)c1cc(F)ccc1NS(=O)(=O)c1cccc2cccnc12)c1ccccc1	inactive
O=C(OCCCCCCOC(=O)c1ccccc1)c1ccccc1	inactive
O=C1O[C@H]([C@@H](O)CO)C(O)=C1O	inactive

----------
# Read-out: Cyclin Dependent Kinase Inhibitor 1A (CDKN1A), CDKN1A (gene 1026)
# testDetails: LTEA_HepaRG_CDKN1A: Life Technologies and Expression Analysis (LTEA) Assay for Cyclin Dependent Kinase Inhibitor 1A (CDKN1A) using HepaRG (AID 2283450)
# conditionParameters: mRNA level, 48 h; actives raise or lower the signal
Activity calls are given as the source filed them. The calls were made as follows: active = hit-call score of the fitted dose curve at least 0.9, where 1 is the maximum; inactive = score below 0.9.
Outcomes: active, inactive

cpdSmiles	labelClass
O=C(O)c1ccccc1C(=O)OCc1ccccc1	inactive
CCN(Cc1cccc(S(=O)(=O)O)c1)c1ccc(C(=C2C=CC(=[N+](CC)Cc3cccc(S(=O)(=O)O)c3)C=C2)c2ccccc2S(=O)(=O)[O-])cc1	inactive
Cc1ccc(C(C)C)cc1	inactive
O=C(O)Cn1c(=O)n(Cc2ccc(Br)cc2F)c(=O)c2ccc(Cl)cc21	inactive
O=C=NCCCCCCN=C=O	inactive
CC1=CC(=O)/C(=C(/C)O)C(=O)O1	inactive
CCN(Cc1cccnc1)C(=O)c1cccc(Cl)c1[C@]1(C)C(=O)N(Cc2ccc(OC)cc2OC)c2ccc(Cl)cc21	active
Cc1cccc2ccccc12	inactive
CC1(C)NC(=O)N(c2ccc([N+](=O)[O-])c(C(F)(F)F)c2)C1=O	active
CCCC(=O)OCCC(C)C	inactive
COc1cccc([C@H](O)C2CCN(CCc3ccc(F)cc3)CC2)c1OC	inactive

----------
# testDetails: APR_HepG2_MitoticArrest_24hr: Apredica 24-hour HepG2 Assay for Mitotic Arrest (AID 2282910)
# conditionParameters: high-content imaging, actives raise or lower the signal
# Experimental: APR_HepG2_24hr is a cell-based, multiplexed-readout assay that uses HepG2, a human liver cell line, with measurements taken at 24 hours after chemical dosing in a 384-well plate.APR_HepG2_MitoticArrest_24hr is one of 10 assay component(s) measured or calculated from the APR_HepG2_24hr assay. […] This assay endpoint, APR_HepG2_MitoticArrest_24hr, was analyzed with bidirectional fitting relative to DMSO as the negative control and baseline of activity. […]
The source made the active and inactive calls. How the source made its calls: active means hit-call score of the fitted dose curve at least 0.9, where 1 is the maximum; inactive means score below 0.9.
Outcomes: active, inactive

cpdSmiles	labelClass
COc1cc(C(=O)NC2CCN(C)CC2)ccc1Nc1ncc2c(n1)N(C1CCCC1)CC(F)(F)C(=O)N2C	inactive
CC(C)(C)c1cc(/C=C2\SC(N)=NC2=O)cc(C(C)(C)C)c1O	active
Oc1ccccc1	inactive
CCCCCCCCCCCC[N+](C)(C)C	active
O=c1c(-c2ccc(O)cc2)coc2cc(O)cc(O)c12	inactive
C[C@]12CC[C@@H]3c4ccc(O)cc4CC[C@H]3[C@@H]1CC[C@H]2O	active
CC1(C)NC(=O)N(c2ccc([N+](=O)[O-])c(C(F)(F)F)c2)C1=O	inactive
c1ccc2ccccc2c1	inactive
O=c1ccc2ccccc2o1	inactive
COc1ccc2cc(S(=O)(=O)N[C@H](CC(=O)N[C@H](Cc3ccc(CN4[C@H](C)CCC[C@@H]4C)cc3)C(=O)N(C)C(C)C)c3ccc4c(c3)OCO4)ccc2c1	active
Cc1cc(F)ccc1-c1cc(N2CC[C@@H](O)[C@H]2CO)ncc1N(C)C(=O)C(C)(C)c1cc(C(F)(F)F)cc(C(F)(F)F)c1	inactive

----------
# testDetails: ATG_RORE_CIS: Attagene CIS-FACTORIAL HepG2 Assay for human RAR-related Orphan Receptor Element (RORE) (AID 2282959)
# conditionParameters: HepG2 Attagene cis-factorial RORE reporter, mRNA; actives raise or lower the signal
Active and inactive are the calls of the source. Rule for the calls: active = hit-call score of the fitted dose curve at least 0.9, where 1 is the maximum; inactive = score below 0.9.

cpdSmiles	AC50
CO[C@H]1/C=C/O[C@@]2(C)Oc3c(C)c(O)c4c(O)c(c(/C=N/N5CCN(C)CC5)c(O)c4c3C2=O)NC(=O)/C(C)=C\C=C\[C@H](C)[C@H](O)[C@@H](C)[C@@H](O)[C@@H](C)[C@H](OC(C)=O)[C@@H]1C	inactive
Cc1oc2c(NC(=O)c3c(Cl)cccc3Cl)cccc2c1C(C)(C)O	31.6 µM (active)
Cc1c2ccccc2c(C)c2c1ccc1ccccc12	54.8 µM (active)
Cc1ccc2oc(CN(Cc3ccccc3)C(=O)Nc3c(F)cc(F)cc3F)c(-c3ccc(Cl)cc3)c2c1	inactive
COc1ccc2cc(S(=O)(=O)N[C@H](CC(=O)N[C@H](Cc3ccc(CN4[C@H](C)CCC[C@@H]4C)cc3)C(=O)N(C)C(C)C)c3ccc4c(c3)OCO4)ccc2c1	inactive
COc1cccc([C@H](O)C2CCN(CCc3ccc(F)cc3)CC2)c1OC	inactive
CCCCCCCC[Si](OCC)(OCC)OCC	inactive
CCCCCCCCCC(=O)O	inactive
O=C(O)Cc1cc(I)c(Oc2ccc(O)c(I)c2)c(I)c1	34.9 µM (active) [middle of 4 runs]
CC(C)(C)c1cc(/C=C2\SC(N)=NC2=O)cc(C(C)(C)C)c1O	inactive
